System: MDA-MB-468 spheroids with HUVEC/MSC, viability
ASSAY_INFO: Anticancer human tumor MDA-MB-468 cell line growth inhibition [PI3K]; active = viability on the fitted dose curve at most 10% of control; inactive = the rest;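 note: spheroids exposed to agents for seven days before readout; 100% = DMSO vehicle control viability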
CONDITION_SET: second compound 0.316 µM; first compound 10 µM
Classes used: active, inactive

{"columns": ["MOLECULE", "LABEL"],
 "data": [
  ["Cn1nccc1Nc1nccc(-c2ccn(C(CO)c3ccc(Cl)c(F)c3)c(=O)c2)n1 (centres undefined) + CC(Nc1ccc2c(c1)OCCn1cc(N3C(=O)OCC3C(F)F)nc1-2)C(N)=O", "inactive"],
  ["CC1(C)CCC(Nc2ncc(C(F)(F)F)c(-c3c[nH]c4c(P(C)(C)=O)c(C#N)ccc34)n2)CN1 (centres undefined) + COc1c(OCCCN2CCOCC2)ccc2c3n(c(=NC(=O)c4cnc(N)nc4)nc12)CCN3", "active"],
  ["CC(Cn1ccc(-c2ccc(C#N)c(Cl)c2)n1)NC(=O)c1cc(C(C)O)[nH]n1 (centres undefined) + COc1c(OCCCN2CCOCC2)ccc2c3n(c(=NC(=O)c4cnc(N)nc4)nc12)CCN3", "inactive"],
  ["CC1(C)CCC(Nc2ncc(C(F)(F)F)c(-c3c[nH]c4c(P(C)(C)=O)c(C#N)ccc34)n2)CN1 (centres undefined) + CC(Nc1ncnc2nc[nH]c12)c1cc2cccc(Cl)c2c(=O)n1-c1ccccc1", "active"]
]}

----------
Tested on: MDA-MB-468 spheroids with HUVEC/MSC, viability
ASSAY_INFO: Anticancer human tumor MDA-MB-468 cell line growth inhibition [PI3K];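 note: spheroids exposed to agents for seven days before readout; 100% = DMSO vehicle control viability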
CONDITION_SET: second compound 0.316 µM; first compound 3.16 µM; hits give low values

{"columns": ["MOLECULE", "ASSAY_SYSTEM", "viability, T/C [%]"],
 "data": [
  ["CNC(=O)c1ccc(N2C(=S)N(c3ccc(C#N)c(C(F)(F)F)c3)C(=O)C2(C)C)cc1F + CC(Nc1ncnc2nc[nH]c12)c1cc2cccc(Cl)c2c(=O)n1-c1ccccc1", "MDA-MB-468 spheroids with HUVEC/MSC, viability", 70.7],
  ["CC(C)NCC(C(=O)N1CCN(c2ncnc3c2C(C)CC3O)CC1)c1ccc(Cl)cc1 (centres undefined) + CC(Nc1ncnc2nc[nH]c12)c1cc2cccc(Cl)c2c(=O)n1-c1ccccc1", "MDA-MB-468 spheroids with HUVEC/MSC, viability", 38.5],
  ["CC1(C)CCC(CN2CCN(c3ccc(C(=O)NS(=O)(=O)c4ccc(NCC5CCOCC5)c([N+](=O)[O-])c4)c(Oc4cnc5[nH]ccc5c4)c3)CC2)=C(c2ccc(Cl)cc2)C1 + Cc1nc(NC(=O)N2CCCC2C(N)=O)sc1-c1ccnc(C(C)(C)C(F)(F)F)c1", "MDA-MB-468 spheroids with HUVEC/MSC, viability", 50.2],
  ["C=CC(=O)N1CCN(c2nc(=O)n(-c3c(C)ccnc3C(C)C)c3nc(-c4c(O)cccc4F)c(F)cc23)C(C)C1 (centres undefined) + CC(Nc1ccc2c(c1)OCCn1cc(N3C(=O)OCC3C(F)F)nc1-2)C(N)=O", "MDA-MB-468 spheroids with HUVEC/MSC, viability", 93.6],
  ["Cn1ncc(Cl)c1-c1cc(C(=O)NC(CN)Cc2cccc(F)c2)sc1Cl (centres undefined) + Cc1nc(NC(=O)N2CCCC2C(N)=O)sc1-c1ccnc(C(C)(C)C(F)(F)F)c1", "MDA-MB-468 spheroids with HUVEC/MSC, viability", 19.7],
  ["CC(C)NCC(C(=O)N1CCN(c2ncnc3c2C(C)CC3O)CC1)c1ccc(Cl)cc1 (centres undefined) + Cc1nc(NC(=O)N2CCCC2C(N)=O)sc1-c1ccnc(C(C)(C)C(F)(F)F)c1", "MDA-MB-468 spheroids with HUVEC/MSC, viability", 26.7],
  ["CC(C)NCC(C(=O)N1CCN(c2ncnc3c2C(C)CC3O)CC1)c1ccc(Cl)cc1 (centres undefined) + CC(Nc1ccc2c(c1)OCCn1cc(N3C(=O)OCC3C(F)F)nc1-2)C(N)=O", "MDA-MB-468 spheroids with HUVEC/MSC, viability", 26.4],
  ["CC1(C)CCC(CN2CCN(c3ccc(C(=O)NS(=O)(=O)c4ccc(NCC5CCOCC5)c([N+](=O)[O-])c4)c(Oc4cnc5[nH]ccc5c4)c3)CC2)=C(c2ccc(Cl)cc2)C1 + CC(Nc1ncnc2nc[nH]c12)c1cc2cccc(Cl)c2c(=O)n1-c1ccccc1", "MDA-MB-468 spheroids with HUVEC/MSC, viability", 62.6],
  ["CC1(C)CCC(CN2CCN(c3ccc(C(=O)NS(=O)(=O)c4ccc(NCC5CCOCC5)c([N+](=O)[O-])c4)c(Oc4cnc5[nH]ccc5c4)c3)CC2)=C(c2ccc(Cl)cc2)C1 + COc1c(OCCCN2CCOCC2)ccc2c3n(c(=NC(=O)c4cnc(N)nc4)nc12)CCN3", "MDA-MB-468 spheroids with HUVEC/MSC, viability", 25.5]
]}

The reported numbers originate from PubChem BioAssay AID1963960.
